As shown below, each of these molecules has a reported IC50 value.
# study-system: full-length human RORγt (GAL4-DBD-RORγt fusion) in HEK293T cells (Homo sapiens (Human), UniProt P51449)
# Sequence (P51449 other isoform, or with tags, fused parts or gaps): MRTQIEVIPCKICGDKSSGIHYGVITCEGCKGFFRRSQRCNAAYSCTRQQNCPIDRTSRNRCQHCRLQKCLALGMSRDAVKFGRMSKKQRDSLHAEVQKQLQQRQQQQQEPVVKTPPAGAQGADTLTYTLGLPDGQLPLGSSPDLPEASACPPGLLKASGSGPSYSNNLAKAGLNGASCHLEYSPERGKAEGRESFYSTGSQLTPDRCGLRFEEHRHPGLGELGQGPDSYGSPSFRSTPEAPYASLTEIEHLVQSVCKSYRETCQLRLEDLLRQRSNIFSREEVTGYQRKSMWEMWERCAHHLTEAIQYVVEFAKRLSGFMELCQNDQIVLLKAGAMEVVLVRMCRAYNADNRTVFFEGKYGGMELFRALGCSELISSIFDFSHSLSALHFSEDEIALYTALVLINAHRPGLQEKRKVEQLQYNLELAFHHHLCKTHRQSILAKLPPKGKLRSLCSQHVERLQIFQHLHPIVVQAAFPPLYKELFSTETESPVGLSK
# assay-notes: RORγt (full-length human) reporter assay, conditions A or B
# cond: HEK293T cells; read-out: RORγt (FL) Reporter Assay A or B, IC50
readout-kind: IC50 (nM)

[[record]]
molecule = "CCn1nc(C(=O)NC[C@@]2(O)CC[C@H](S(C)(=O)=O)C[C@@H]2O)c(Cl)c1-c1ccc(CC(C)(C)C(F)(F)F)nc1OC(F)F (stereo in doubt) [Example 48]"
readout_kind = "IC50"
result_value = 5.7

[[record]]
molecule = "CCn1nc(C(=O)NC[C@]2(O)CC[C@@H](S(C)(=O)=O)C[C@H]2O)c(Cl)c1-c1ccc(CC(C)(C)C(F)(F)F)nc1OC(F)F (stereo in doubt) [Example 47]"
readout_kind = "IC50"
result_value = 44

[[record]]
molecule = "CCc1cc(C[C@@H](C)C(F)(F)F)ncc1-c1c(Cl)c(C(=O)NC[C@]2(O)CC[C@@H](S(C)(=O)=O)CC2)nn1CC (single isomer, unassigned) [Example 56]"
readout_kind = "IC50"
result_value = 2300


###

As shown below, each of these molecules has a reported IC50 value.
# study-system: full-length human RORγt (GAL4-DBD-RORγt fusion) in HEK293T cells (Homo sapiens (Human), UniProt P51449)
# assay-notes: RORγt (full-length human) reporter assay, conditions A or B
# cond: HEK293T cells; read-out: RORγt (FL) Reporter Assay A or B, IC50
readout-kind: IC50 (nM)

[[record]]
molecule = "CCn1nc(C(=O)NC[C@]2(O)CC[C@@H](S(C)(=O)=O)C[C@H]2O)c(Cl)c1-c1cnc(CC(C)(C)C(F)(F)F)cc1OC(F)F (stereo in doubt) [Example 3]"
readout_kind = "IC50"
measure_unit = "nM"
result_value = 63

[[record]]
molecule = "CCn1nc(C(=O)NC[C@@]2(O)CC[C@H](S(C)(=O)=O)C[C@@H]2O)c(Cl)c1-c1cnc(CC(C)(C)C(F)F)cc1OC(F)F (stereo in doubt) [Example 39]"
readout_kind = "IC50"
measure_unit = "nM"
result_value = 730

[[record]]
molecule = "CCn1nc(C(=O)NC[C@H]2CC[C@H](S(C)(=O)=O)CC2)c(C)c1-c1cnc(CC(C)(C)C(F)(F)F)cc1OC(F)F [Example 13]"
readout_kind = "IC50"
measure_unit = "nM"
result_value = 11


###

# study-system: full-length human RORγt (GAL4-DBD-RORγt fusion) in HEK293T cells (Homo sapiens (Human))
# assay-notes: RORγt (full-length human) reporter assay, conditions A or B
# cond: HEK293T cells; read-out: RORγt (FL) Reporter Assay A or B, IC50
# Method: RORγt (Full-Length Human) Reporter Assay: HEK293T cells were plated at 35,000 per well in 96-well plate in medium of DMEM with 10% FBS. […] Firefly luciferase luminescence was measured using a BMG Pherastar plate reader. […] Renilla luminescence was measured using a BMG Pherastar plate reader. […] IC50s were generated by plotting final Renilla normalized data against compound concentration and percent inhibition was calculated against DMSO control. […]
As shown below, each of these compounds has a reported IC50 value.
readout-kind: IC50

[[record]]
compound = "CCn1nc(C(=O)NC[C@H]2CC[C@H](S(C)(=O)=O)CC2)c(Cl)c1-c1cnc(O[C@@H](C)C(F)(F)F)cc1OC [Example 64]"
study_system = "full-length human RORγt (GAL4-DBD-RORγt fusion) in HEK293T cells (Homo sapiens (Human))"
readout_kind = "IC50"
result_value = "280 nM"

[[record]]
compound = "CCn1nc(C(=O)NC[C@H]2CC[C@H](S(C)(=O)=O)CC2)c(Cl)c1-c1cnc(CC(C)(C)C(F)(F)F)cc1C(F)F [Example 26]"
study_system = "full-length human RORγt (GAL4-DBD-RORγt fusion) in HEK293T cells (Homo sapiens (Human))"
readout_kind = "IC50"
result_value = "14 nM"

[[record]]
compound = "CCn1nc(C(=O)NC[C@H]2CC[C@H](S(=O)(=O)NC(=O)NC)CC2)c(Cl)c1-c1cnc(CC(C)(C)C(F)(F)F)cc1OC(F)F [Example 6]"
study_system = "full-length human RORγt (GAL4-DBD-RORγt fusion) in HEK293T cells (Homo sapiens (Human))"
readout_kind = "IC50"
result_value = "270 nM"

[[record]]
compound = "CCn1nc(C(=O)NC[C@]2(O)CC[C@@H](S(C)(=O)=O)CC2)c(Cl)c1-c1ncc(CC(C)(C)C(F)(F)F)cc1OC(F)F [Example 53]"
study_system = "full-length human RORγt (GAL4-DBD-RORγt fusion) in HEK293T cells (Homo sapiens (Human))"
readout_kind = "IC50"
result_value = "250 nM"

[[record]]
compound = "CCn1nc(C(=O)NC[C@@]2(O)CC[C@H](S(C)(=O)=O)C[C@@H]2O)c(C)c1-c1cnc(CC(C)(C)C(F)F)cc1OC(F)F (stereo in doubt) [Example 43]"
study_system = "full-length human RORγt (GAL4-DBD-RORγt fusion) in HEK293T cells (Homo sapiens (Human))"
readout_kind = "IC50"
result_value = "320 nM"

[[record]]
compound = "CCc1cc(CC(C)(C)C(F)(F)F)ncc1-c1c(Cl)c(C(=O)NC[C@]2(O)CC[C@@H](S(C)(=O)=O)CC2)nn1CC [Example 55]"
study_system = "full-length human RORγt (GAL4-DBD-RORγt fusion) in HEK293T cells (Homo sapiens (Human))"
readout_kind = "IC50"
result_value = "280 nM"

[[record]]
compound = "CCn1nc(C(=O)NC[C@]2(O)CC[C@@H](S(C)(=O)=O)CC2)c(C)c1-c1cnc(CC(C)(C)C(F)(F)F)cc1OC(F)F [Example 8]"
study_system = "full-length human RORγt (GAL4-DBD-RORγt fusion) in HEK293T cells (Homo sapiens (Human))"
readout_kind = "IC50"
result_value = "56 nM"

[[record]]
compound = "CCn1nc(C(=O)NC[C@]2(O)CC[C@@H](S(C)(=O)=O)CC2)c(Cl)c1-c1cnc(CC(C)(C)C(F)(F)F)cc1OC(F)F [Example 10]"
study_system = "full-length human RORγt (GAL4-DBD-RORγt fusion) in HEK293T cells (Homo sapiens (Human))"
readout_kind = "IC50"
result_value = "14 nM"

[[record]]
compound = "CCn1nc(C(=O)NC[C@]2(O)CC[C@@H](S(C)(=O)=O)CC2)c(C)c1-c1cnc(CC(C(F)(F)F)C(F)(F)F)cc1OC(F)F [Example 24]"
study_system = "full-length human RORγt (GAL4-DBD-RORγt fusion) in HEK293T cells (Homo sapiens (Human))"
readout_kind = "IC50"
result_value = "63 nM"

[[record]]
compound = "CCn1nc(C(=O)NC[C@H]2CC[C@H](S(C)(=O)=O)CC2)c(Cl)c1-c1cnc(O[C@H](C)C(F)(F)F)cc1OC [Example 65]"
study_system = "full-length human RORγt (GAL4-DBD-RORγt fusion) in HEK293T cells (Homo sapiens (Human))"
readout_kind = "IC50"
result_value = "41 nM"

[[record]]
compound = "CCc1cc(CCC(C)(C)C)ncc1-c1c(Cl)c(C(=O)NC[C@]2(O)CC[C@@H](S(C)(=O)=O)CC2)nn1CC [Example 59]"
study_system = "full-length human RORγt (GAL4-DBD-RORγt fusion) in HEK293T cells (Homo sapiens (Human))"
readout_kind = "IC50"
result_value = "210 nM"

[[record]]
compound = "CCn1nc(C(=O)NC[C@H]2CC[C@H](S(=O)(=O)NC(N)=O)CC2)c(Cl)c1-c1cnc(CC(C)(C)C(F)(F)F)cc1OC(F)F [Example 7]"
study_system = "full-length human RORγt (GAL4-DBD-RORγt fusion) in HEK293T cells (Homo sapiens (Human))"
readout_kind = "IC50"
result_value = "240 nM"


###

As shown below, each of these compounds has a reported inhibition at 3 µM value.
# study-system: full-length human RORγt (GAL4-DBD-RORγt fusion) in HEK293T cells (Homo sapiens (Human), UniProt P51449)
# assay-notes: RORγt (full-length human) reporter assay, conditions A or B
# Format: cell-based
# cond: HEK-293T; 3 μM compound concentration (footnote *); read-out: RORγt (FL) Reporter Assay A or B, % inhibition
readout-kind: inhibition at 3 µM (%)

[[record]]
compound = "CCn1nc(C(=O)NC[C@]2(O)CC[C@@H](S(C)(=O)=O)CC2)c(C)c1-c1cnc(CC(C)(C)C(F)(F)F)cc1OC(F)F [Example 8]"
result_value = 100

[[record]]
compound = "CCn1nc(C(=O)NC[C@]2(O)CC[C@@H](S(N)(=O)=O)CC2)c(C)c1-c1cnc(CC(C)(C)C(F)(F)F)cc1OC(F)F [Example 2]"
result_value = 104

[[record]]
compound = "CCc1cc(C[C@@H](C)C(F)(F)F)ncc1-c1c(Cl)c(C(=O)NC[C@H]2CC[C@H](S(C)(=O)=O)CC2)nn1CC (relative stereo) [Example 57]"
result_value = 43

[[record]]
compound = "CCn1nc(C(=O)NC[C@H]2CC[C@H](S(C)(=O)=O)CC2)c(Cl)c1-c1ncc(CC(C)(C)C(F)(F)F)cc1OC(F)F [Example 52]"
result_value = 85

[[record]]
compound = "CCn1nc(C(=O)NC[C@]2(O)CC[C@@H](S(C)(=O)=O)CC2)c(C)c1-c1cnc(C[C@@H](C)C(F)(F)F)cc1OC(F)F (single isomer, unassigned) [Example 20]"
result_value = 123

[[record]]
compound = "CCn1nc(C(=O)NC[C@]2(O)CC[C@@H](S(C)(=O)=O)CC2)c(Cl)c1-c1cnc(OCC(C)(C)C(F)(F)F)cc1OC [Example 36]"
result_value = 104

[[record]]
compound = "CCn1nc(C(=O)NC[C@H]2CC[C@H](S(C)(=O)=O)CC2)c(Cl)c1-c1ccc(CC(C)(C)C(F)(F)F)nc1OC(F)F [Example 45]"
result_value = 86

[[record]]
compound = "CCn1nc(C(=O)NC[C@H]2CC[C@H](S(C)(=O)=O)CC2)c(C)c1-c1cnc(CC(C)(C)C(F)(F)F)cc1C(F)F [Example 29]"
result_value = 39

[[record]]
compound = "CCn1nc(C(=O)NC[C@H]2CC[C@H](S(C)(=O)=O)CC2)c(C)c1-c1ccc(CC(C)(C)C(F)(F)F)nc1OC(F)F [Example 49]"
result_value = 106

[[record]]
compound = "CCn1nc(C(=O)NC[C@H]2CC[C@H](S(N)(=O)=O)CC2)c(C)c1-c1cnc(CC(C)(C)C(F)(F)F)cc1OC(F)F [Example 12]"
result_value = 110

[[record]]
compound = "CCn1nc(C(=O)NC[C@@]2(O)CC[C@H](S(C)(=O)=O)C[C@@H]2O)c(Cl)c1-c1cnc(CC(C)(C)C(F)(F)F)cc1OC(F)F (stereo in doubt) [Example 4]"
result_value = 100

[[record]]
compound = "CCn1nc(C(=O)NC[C@]2(O)CC[C@@H](S(N)(=O)=O)CC2)c(Cl)c1-c1cnc(CC(C)(C)C(F)(F)F)cc1OC(F)F [Example 1]"
result_value = 116

